Tested on: XCL-1 hiPSC CRBN KO/KI
Protocol: cells
Format: cell-based
Test Settings: Homo sapiens, 72 h; XCL-1 CRBN KO/KI; 3 d differentiation; read-out: IC50 (±SEM) in SOX17 differentiation assay
pIC50: −log10 of the molar value.
This listing pairs compounds with measured pIC50.

* O=C1CCC(N2C(=O)c3ccccc3C2=O)C(=O)N1 (centres unmarked) [Thalidomide, thalidomide] | < 4.30

Could you share what pIC50 was measured for Nc1cccc2c1C(=O)N(C1CCC(=O)NC1=O)C2=O (centres unmarked) [Pomalidomide, pomalidomide] , tested on XCL-1 hiPSC CRBN KO/KI?
< 4.30
